These entries and their values trace back to ChEMBL document CHEMBL4813968.

Record form. Attribute: selectivity ratio. Fill in for each entry.
assay: Selectivity index, ratio of EC50 for cytotoxicity against mouse primary macrophage to EC50 for antileishmanial activity against Leishmania infantum MHOM/MA(BE)/67 infected in mouse primary peritoneal macrophages; format: toxicity; details: read-out: Ratio EC50

Hi team, please reply with selectivity ratio for each item in this list.
1. Nc1ncnc2c1c(-c1ccc(Cl)cc1)cn2[C@@H]1O[C@H](CO)[C@@H](F)[C@H]1O
2. C#Cc1cn([C@@H]2O[C@H](CO)[C@@H](F)[C@H]2O)c2ncnc(N)c12
3. Nc1ncnc2c1c(-c1ccc(Cl)c(Cl)c1)cn2[C@@H]1O[C@H](CO)[C@@H](F)[C@H]1O
4. Nc1ncnc2c1c(-c1ccc(Cl)c(F)c1)cn2[C@@H]1O[C@H](CO)[C@H](F)[C@H]1O
5. Nc1ncnc2c1ncn2[C@@H]1O[C@H](CO)[C@@H](F)[C@H]1O

Response:
1: 3; 2: 1; 3: 3; 4: 1; 5: > 2

Hi team, please reply with selectivity ratio for each item in this list.
1. N#Cc1cn([C@@H]2O[C@H](CO)[C@@H](F)[C@H]2O)c2ncnc(N)c12
2. Nc1ncnc2c1c(-c1ccc(F)cc1)cn2[C@@H]1O[C@H](CO)[C@H](F)[C@H]1O
3. Nc1ncnc2c1c(Cl)cn2[C@@H]1O[C@H](CO)[C@@H](F)[C@H]1O
4. Cc1cc(-c2cn([C@@H]3O[C@H](CO)[C@H](F)[C@H]3O)c3ncnc(N)c23)ccc1Cl

Response:
["< 1", 1, 1, 1]

###

assay: Selectivity index, ratio of EC50 for human MRC5 cells to EC50 for antitrypanosomal activity against Trypanosoma brucei rhodesiense; assay type: toxicity; settings: read-out: Ratio EC50
Property measured: selectivity ratio
Answers are plain numbers.

Illustrative cases are given below, each with its answer.
Mol	Property measured	Readout number
Nc1ncnc2c1ncn2[C@@H]1O[C@H](CO)[C@@H](F)[C@H]1O	selectivity ratio	296
CCc1cn([C@@H]2O[C@H](CO)[C@@H](F)[C@H]2O)c2ncnc(N)c12	selectivity ratio	2
Nc1ncnc2c1c(-c1ccc(Cl)c(Cl)c1)cn2[C@@H]1O[C@H](CO)[C@@H](F)[C@H]1O	selectivity ratio	2
Nc1ncnc2c1c(Cl)cn2[C@@H]1O[C@H](CO)[C@@H](F)[C@H]1O	selectivity ratio	448
Nc1ncnc2c1c(-c1ccc(Cl)cc1)cn2[C@@H]1O[C@H](CO)[C@@H](F)[C@H]1O	selectivity ratio	2
C=Cc1cn([C@@H]2O[C@H](CO)[C@@H](F)[C@H]2O)c2ncnc(N)c12	selectivity ratio	59
Nc1ncnc2c1c(I)cn2[C@@H]1O[C@H](CO)[C@@H](F)[C@H]1O	selectivity ratio	826
Nc1ncnc2c1c(C(F)(F)F)cn2[C@@H]1O[C@H](CO)[C@@H](F)[C@H]1O	selectivity ratio	3

Hi team, please reply with selectivity ratio for each item in this list.
1. Nc1ncnc2c1c(-c1ccc(Cl)c(F)c1)cn2[C@@H]1O[C@H](CO)[C@H](F)[C@H]1O
2. Nc1ncnc2c1c(Br)cn2[C@@H]1O[C@H](CO)[C@H](F)[C@H]1O
3. COc1ncnc2c1c(Br)cn2[C@@H]1O[C@H](CO)[C@@H](F)[C@H]1O
4. Nc1ncnc2c1c(-c1ccc(Cl)c(Cl)c1)cn2[C@@H]1O[C@H](CO)[C@H](F)[C@H]1O
5. Nc1ncnc2c1c(-c1ccc(Cl)cc1)cn2[C@@H]1O[C@H](CO)[C@H](F)[C@H]1O
6. Nc1ncnc2c1c(Br)cn2[C@@H]1O[C@H](CO)[C@@H](F)[C@H]1O
7. Nc1ncnc2c1c(F)cn2[C@@H]1O[C@H](CO)[C@@H](F)[C@H]1O

Response:
[13, 152, 1, 4, 10, 1150, 27]
